study system: HCV polymerase (Hepatitis C virus genotype 1b, UniProt P26663)
Construct: a region encoding NS5B (591 amino acids; J Virol 1991 Mar, 65(3), 1105-13) was amplified by PCR; 6 His (N); made in house; host or cells: Escherichia coli
Sequence (P26663 2420-3010): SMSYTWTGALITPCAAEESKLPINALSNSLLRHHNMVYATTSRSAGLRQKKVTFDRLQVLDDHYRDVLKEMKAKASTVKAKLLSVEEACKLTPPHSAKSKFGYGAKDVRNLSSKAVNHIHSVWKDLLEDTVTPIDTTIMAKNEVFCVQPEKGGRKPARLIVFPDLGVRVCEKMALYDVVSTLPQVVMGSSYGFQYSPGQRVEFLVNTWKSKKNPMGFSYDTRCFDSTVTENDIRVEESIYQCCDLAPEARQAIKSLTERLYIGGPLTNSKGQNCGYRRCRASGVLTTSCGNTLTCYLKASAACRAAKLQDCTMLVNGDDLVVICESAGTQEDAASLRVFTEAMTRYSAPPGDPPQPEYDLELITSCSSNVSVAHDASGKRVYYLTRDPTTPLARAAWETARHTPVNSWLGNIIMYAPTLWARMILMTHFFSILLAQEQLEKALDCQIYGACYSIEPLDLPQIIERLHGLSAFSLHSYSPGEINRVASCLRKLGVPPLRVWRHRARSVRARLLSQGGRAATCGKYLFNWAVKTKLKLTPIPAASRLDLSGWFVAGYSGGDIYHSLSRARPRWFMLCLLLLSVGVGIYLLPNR
method summary: biochemical
setup conditions: read-out: HCV polymerase inhibitory activity IC50
pIC50: −log10 of the molar value.
Reported pIC50 values for a set of compounds
readout kind: pIC50

- CS(=O)(=O)c1ccc(-c2ccc(Cl)cc2COc2ccc(-c3nc4cc(C(=O)O)ccc4n3C3CCCCC3)cc2)cc1: 7.48
- COc1ccc(-c2ccc(Cl)cc2)c(COc2ccc(-c3nc4cc(C(=O)O)ccc4n3C3CCCCC3)c(F)c2)c1: 7.55
- O=C(O)c1ccc2c(c1)nc(-c1ccc(OCc3cc(C(=O)N4CCSCC4)ccc3-c3ccc(Cl)cc3)cc1F)n2C1CCCCC1: 7.80
- Cc1noc(C)c1COc1ccc(-c2nc3cc(C(=O)O)ccc3n2C2CCCC2)cc1: 6.00

---

Reported melting point values for a set of molecules
readout kind: melting point

* Cc1nc(-c2ccc(F)cc2)c(COc2ccc(-c3nc4cc(C(=O)O)ccc4n3C3CCCCC3)cc2)s1 | 196 to 198 °C
* Cl.O=C(O)c1ccc2c(c1)nc(-c1ccc(OCc3cc(N4CCCC4=O)ccc3-c3ccc(Cl)cc3)cc1F)n2C1CCCCC1 | 243 to 246 °C
* O=C(O)c1ccc2c(c1)nc(-c1ccc(OC(c3cccc(F)c3)c3cccc(F)c3)cc1F)n2C1CCCCC1 | 242 to 243 °C
* O=C(O)c1ccc2c(c1)nc(-c1ccc(Oc3cccc(-c4cccc(Cl)c4)c3)cc1)n2C1CCCCC1 | 253 to 254 °C
* O=C(O)c1ccc2c(c1)nc(-c1ccc(OCc3cc(Cl)ccc3-c3ccc(Cl)cc3)cc1)n2C1CCCCC1 | 243 to 244 °C
* COc1ccc(-c2ccc(Cl)cc2)c(COc2ccc(-c3nc4cc(C(=O)O)ccc4n3C3CCCCC3)cc2)c1 | 248 to 249 °C
* NC(=O)c1ccc2c(c1)nc(-c1ccc(OCc3ccccc3)cc1)n2C1CCCC1 | 232 to 233 °C
* O=C(O)c1ccc2c(c1)nc(-c1ccc(Oc3cccc(Br)c3)cc1)n2C1CCCCC1 | 255 to 256 °C
* O=C(O)c1ccc2c(c1)nc(-c1ccc(Oc3cccc(OCc4ccncc4)c3)cc1)n2C1CCCCC1 | 235 to 237 °C

---

Reported pIC50 values for a set of compounds
study system: HCV polymerase (Hepatitis C virus genotype 1b)
Construct: a region encoding NS5B (591 amino acids; J Virol 1991 Mar, 65(3), 1105-13) was amplified by PCR; 6 His (N); made in house; host or cells: Escherichia coli
method summary: biochemical
setup conditions: read-out: HCV polymerase inhibitory activity IC50
pIC50: −log10 of the molar value. Structures can show the parent of a compound that is named as a salt.
readout kind: pIC50

• CCC(=O)N(C)c1ccc(-c2ccc(Cl)cc2)c(COc2ccc(-c3nc4cc(C(=O)O)ccc4n3C3CCCCC3)c(F)c2)c1 [Example 466, hydrochloride] = 7.64
• CC(C)NC(=O)c1ccc(-c2ccc(Cl)cc2)c(COc2ccc(-c3nc4cc(C(=O)O)ccc4n3N3CCCCC3)c(F)c2)c1 [Example 420, hydrochloride] = 7.82
• CC(C)CC(=O)c1ccc(-c2ccc(Cl)cc2)c(COc2ccc(-c3nc4cc(C(=O)O)ccc4n3C3CCCCC3)cc2)c1 = 7.60
• CCCOc1ccccc1Oc1ccc(-c2nc3cc(C(=O)O)ccc3n2C2CCCCC2)cc1 = 6.62
• CN(C)C(=O)Nc1ccc(-c2ccc(Cl)cc2)c(COc2ccc(-c3nc4cc(C(=O)O)ccc4n3C3CCCCC3)c(F)c2)c1 [Example 391, hydrochloride] = 7.77
• O=C(O)c1ccc2c(c1)nc(-c1ccc(OCc3cc(C(=O)N4CCC(O)CC4)ccc3-c3ccc(Cl)cc3)cc1)n2C1CCCC1 [Example 415, hydrochloride] = 7.72
• O=C(O)c1ccc2c(c1)nc(-c1ccc(OCc3cc(-c4nnn[nH]4)ccc3-c3ccc(Cl)cc3)cc1)n2C1CCCCC1 [Example 367, hydrochloride] = 7.96
• O=C(O)c1ccc2c(c1)cc(-c1ccc(OCc3ccccc3)cc1)n2C1CCCC1 = 6.71
• CN(C)C(=O)c1ccc(-c2ccc(Cl)s2)c(COc2ccc(-c3nc4cc(C(=O)O)ccc4n3C3CCCCC3)cc2)c1 [Example 362, hydrochloride] = 7.70
• CN(C)C(=O)c1ccc(-c2ccc(Cl)cc2)c(COc2ccc(-c3nc4cc(C(=O)O)ccc4n3C3CCCCC3)c(F)c2)c1 [Example 269, hydrochloride] = 7.89
• Cc1cnc(-c2ccc(-c3ccc(Cl)cc3)c(COc3ccc(-c4nc5cc(C(=O)O)ccc5n4C4CCCCC4)cc3)c2)o1 [Example 365, hydrochloride] = 7.70
• O=C(O)c1ccc2c(c1)nc(-c1ccc(OCc3cc(C4=NCCN4)ccc3-c3ccc(Cl)cc3)cc1F)n2C1CCCCC1 [Example 422, dihydrochloride] = 7.77
